Reported binding response of second antibody (nm) values are given for each entry in this list.
measuredTarget: T1, human GFRα3 expressed with a C-terminal myc-myc-hexahistidine tag (human, UniProt O60609 32-374, biotinylated (sites not given) in ELISA format 2 and in the Octet cross-competition; not in SPR)
T1 construct: also called hGFRα3-mmh; hGFRα3-mmH
T1 sequence (O60609 other isoform, or with tags, fused parts or gaps limits assumed): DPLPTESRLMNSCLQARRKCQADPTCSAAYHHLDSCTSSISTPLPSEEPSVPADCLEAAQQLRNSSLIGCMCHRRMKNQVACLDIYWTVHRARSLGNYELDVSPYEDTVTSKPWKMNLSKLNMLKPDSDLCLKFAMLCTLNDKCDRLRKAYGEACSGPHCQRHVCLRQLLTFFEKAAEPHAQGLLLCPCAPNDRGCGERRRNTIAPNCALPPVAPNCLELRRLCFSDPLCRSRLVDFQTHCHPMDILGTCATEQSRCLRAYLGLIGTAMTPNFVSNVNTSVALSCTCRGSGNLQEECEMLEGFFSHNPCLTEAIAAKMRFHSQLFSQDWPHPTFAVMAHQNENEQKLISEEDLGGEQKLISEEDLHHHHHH
assaySummary: Octet cross-competition; biotin-hGFRα3-mmH pre-saturated with first antibody H4H2291S
Report only the number, with the unit nm understood.

Example cases with answers are listed next.
## Task I am curious: what binding response of second antibody (nm) value has been reported for H4H2357S (antibody, human IgG4, V domains shown, human IgG4 Fc (H4H)) VH: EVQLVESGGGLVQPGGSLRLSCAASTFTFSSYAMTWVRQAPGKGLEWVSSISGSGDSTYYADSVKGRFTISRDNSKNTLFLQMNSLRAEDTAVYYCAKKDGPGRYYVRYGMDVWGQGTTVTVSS VL: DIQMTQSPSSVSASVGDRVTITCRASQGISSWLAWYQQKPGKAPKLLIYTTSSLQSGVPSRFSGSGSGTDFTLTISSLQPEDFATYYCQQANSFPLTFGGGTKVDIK ?
## Result 0

## Task What does the record list as binding response of second antibody (nm) for H4H2236N3 (antibody, human IgG4, V domains shown, human IgG4 Fc (H4H)) VH: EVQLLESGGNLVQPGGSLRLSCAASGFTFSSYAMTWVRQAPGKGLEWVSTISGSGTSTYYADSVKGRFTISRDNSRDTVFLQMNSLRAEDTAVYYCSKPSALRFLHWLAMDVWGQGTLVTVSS VL: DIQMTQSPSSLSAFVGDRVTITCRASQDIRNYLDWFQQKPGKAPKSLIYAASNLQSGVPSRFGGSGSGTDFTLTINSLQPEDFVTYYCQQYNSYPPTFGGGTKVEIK ?
## Result 0.01

## Task Return reported binding response of second antibody (nm); argument: H4H2295S (antibody, human IgG4, V domains shown, human IgG4 Fc (H4H)) VH: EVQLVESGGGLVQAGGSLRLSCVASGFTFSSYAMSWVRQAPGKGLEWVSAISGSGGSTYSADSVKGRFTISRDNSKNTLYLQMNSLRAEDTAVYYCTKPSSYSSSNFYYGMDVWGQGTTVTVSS VL: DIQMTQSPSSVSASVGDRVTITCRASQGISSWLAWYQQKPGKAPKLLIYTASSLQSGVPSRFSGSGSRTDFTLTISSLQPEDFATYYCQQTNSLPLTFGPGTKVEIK
## Result 0

## Task I have this binder here, H4H2294S (antibody, human IgG4, V domains shown, human IgG4 Fc (H4H)) VH: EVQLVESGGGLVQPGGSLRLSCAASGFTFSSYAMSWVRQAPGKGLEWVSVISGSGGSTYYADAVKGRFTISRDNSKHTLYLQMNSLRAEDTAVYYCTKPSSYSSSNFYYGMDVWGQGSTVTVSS VL: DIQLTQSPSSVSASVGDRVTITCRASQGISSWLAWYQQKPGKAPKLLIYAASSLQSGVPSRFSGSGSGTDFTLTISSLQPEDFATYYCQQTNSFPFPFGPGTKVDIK , and I need its recorded binding response of second antibody (nm).
## Result 0

## Task Which binding response of second antibody (nm) is listed for H4H2352S (antibody, human IgG4, V domains shown, human IgG4 Fc (H4H); also called H4H2352S-1) VH: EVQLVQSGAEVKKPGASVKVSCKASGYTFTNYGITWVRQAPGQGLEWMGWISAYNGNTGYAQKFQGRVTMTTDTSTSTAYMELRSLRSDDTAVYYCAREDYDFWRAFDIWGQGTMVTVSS VL: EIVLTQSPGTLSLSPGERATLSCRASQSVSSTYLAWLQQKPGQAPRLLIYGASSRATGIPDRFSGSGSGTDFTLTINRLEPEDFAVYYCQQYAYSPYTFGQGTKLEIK ?
## Result 2.03

Next:
## Task Look up binding response of second antibody (nm) for this binder: H4H2243N2 (antibody, human IgG4, V domains shown, human IgG4 Fc (H4H)) VH: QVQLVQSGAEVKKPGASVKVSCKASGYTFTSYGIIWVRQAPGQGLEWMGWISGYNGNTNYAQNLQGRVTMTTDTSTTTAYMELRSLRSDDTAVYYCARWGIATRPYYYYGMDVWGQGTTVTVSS VL: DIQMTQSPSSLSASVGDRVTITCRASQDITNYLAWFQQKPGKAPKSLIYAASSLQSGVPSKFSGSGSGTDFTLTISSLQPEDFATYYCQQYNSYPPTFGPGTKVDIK
## Result 0

## Task binding response of second antibody (nm) for H4H2292S (antibody, human IgG4, V domains shown, human IgG4 Fc (H4H)) VH: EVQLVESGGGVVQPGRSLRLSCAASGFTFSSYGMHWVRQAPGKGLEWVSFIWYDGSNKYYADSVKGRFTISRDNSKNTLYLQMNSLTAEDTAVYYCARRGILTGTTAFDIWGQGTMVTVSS VL: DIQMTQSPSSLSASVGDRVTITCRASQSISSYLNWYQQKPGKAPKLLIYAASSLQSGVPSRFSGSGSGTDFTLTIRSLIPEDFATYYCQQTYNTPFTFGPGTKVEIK ?
## Result 1.94
